- study_system: NADPH oxidase 4 (Homo sapiens)
- experimental_protocol: compounds shifting NOX4 Amplex Red fluorescence – cell-based, HEK293-NOX4, tetracycline-induced, NOX inhibitor project, primary screen (AID 1160)
- study_conditions: HEK293-NOX4, Amplex Red H2O2 fluorescence, 45 min; higher = more signal, called active from +8 up or from −8 down
# label = TRUE if z-score >= 0.4 else FALSE

Cc1ccc(S[C@]2(C(=O)NCC(C)C)CC(=O)N(C3CCCCC3)[C@@H]2c2ccc(CO)cc2I)cc1 | FALSE
COc1ccc(C(=O)Nc2ccc(CN3C(=O)[C@@]4(O[C@@H](CC(=O)N5Cc6ccccc6C[C@H]5CO)[C@H]([Si](C)(C)c5ccc(OC)cc5)[C@H]4C)c4ccccc43)cc2)cc1 | TRUE
CC(C)(C)OC(=O)CC[C@@]1(C(=O)N2CCCCC2)N=C(c2ccc(OCCCO)cc2)O[C@@H]1c1ccccc1CN=[N+]=[N-] | TRUE
C=CCC(OC(C)=O)[C@@H]1[C@@H](N(Cc2cc3ccccc3o2)C(=O)Cc2ccc(OC)cc2)c2cc(OCCCO)ccc2N1C(=O)c1ccc(-c2ccccc2)cc1 (stereo not given in full) | FALSE
O=C(N1CCOCC1)[C@@]1(CCS(=O)(=O)c2ccccc2)COC(c2ccc(OCCCO)cc2)=N1 | TRUE
O=C1N(CCS(=O)(=O)c2ccccc2)Cc2ccccc2C[C@@]12COC(c1ccc(OCCCO)cc1)=N2 | FALSE
C/C=C/[C@@H](CCn1cc([C@H](O)c2ccccc2)nn1)[Si](C)(C)c1ccc(OC)cc1 | FALSE
C[N+](C)(C)CCCC[C@@H]1NC(=O)[C@@H]2C[C@H](C(=O)NCCCCCNC(=O)CS)[C@H](c3cccc(OCCO)c3)N2C1=O | TRUE
COC(=O)[C@]1(Cc2ccccc2CN=[N+]=[N-])N=C(c2ccc(OCCCO)cc2)O[C@@H]1c1ccccc1 | FALSE
OCc1ccc(-c2cc[n+](Cc3cccc(OC(F)(F)F)c3)cc2)cc1 | FALSE
C[N+](C)(C)CCCC[C@@H]1NC(=O)[C@H]2C[C@@H](C(=O)NCCCCCCN)[C@@H](c3cccc(OCCO)c3)N2C1=O | TRUE
CC(=O)NCCCC[C@@H]1NC(=O)[C@H]2C[C@@H](C(=O)NCCCCCN)[C@@H](c3cccc(OCCO)c3)N2C1=O | TRUE
COc1ccc(C(=O)Nc2ccc3c(c2)[C@]2(O[C@@H](CCO)[C@H]([Si](C)(C)c4ccc(OC)cc4)[C@H]2C)C(=O)N3Cc2ccccc2)cc1 | FALSE
COCCCNC(=O)[C@@H]1c2ccccc2C(=O)N(c2ccc(C)cn2)[C@H]1c1ccc(CO)cc1 | FALSE
C=CC[C@]1(C(=O)N(C)C)N=C(c2ccc(OCCCO)cc2)O[C@H]1c1ccccc1 | FALSE

----------
- experimental_protocol: probe aCHRDL2 binding to arrayed compounds – biochemical, biotinylated probe, 635/667 nm fluorescence, primary screen (AID 1100)
- study_conditions: small-molecule microarray, higher = more signal
# label = Yes if composite z-score >= 0.6 else No

CC(C)C[C@H]1NC(=O)[C@H](C)NC(=O)[C@@]23C(=O)N[C@@H](Cc4ccccc4)C2[C@H](C)[C@@]2(C)O[C@H]2C3/C=C/C/C=C\CNC1=O (some centres undefined) | No
COc1ccc([Si](C)(C)[C@@H]2[C@@H](CC(=O)N(CCO)Cc3ccccc3)O[C@]3(C(=O)N(C)c4c(Br)cc(C)cc43)[C@H]2C)cc1 | No
[N-]=[N+]=NCc1ccccc1[C@H]1OC(c2ccc(OCCCO)cc2)=N[C@@]1(Cc1ccccc1)C(N)=O | Yes
CC(C)c1ccc(NN2C(C(O)c3cccs3)C=CC3C(=O)N(c4ccccc4)C(=O)C32)cc1 (centres undefined) | Yes
COCCCNC(=O)[C@@]1(Cc2ccccc2CN=[N+]=[N-])N=C(c2ccc(OCCCO)cc2)O[C@H]1c1ccccc1N=[N+]=[N-] | Yes
Cc1ccc(S[C@]2(C(=O)O)CC(=O)N(Cc3ccccc3C(F)(F)F)[C@@H]2c2ccc(CO)cc2)cc1 | Yes
COCCOC(=O)N1C(=O)[C@@]2(c3cc(C#Cc4ccc(OC)cc4)ccc31)[C@H](C(=O)N1CCc3cc(OC)c(OC)cc3C1)[C@H]1C(=O)O[C@H](c3ccccc3)[C@H](c3ccccc3)N1[C@@H]2c1ccc(OCCO)cc1 | No
O=C1OCC=C[C@H]2OC34C=CCN(CCN5CCOCC5)C(=O)[C@H]3N(CCCCCO)C(=O)[C@@H]4[C@@H]12 (some centres undefined) | No
C=CC[C@]1(C(=O)NCC(O)CO)N=C(c2ccc(OCCCO)cc2)O[C@H]1c1ccccc1N=[N+]=[N-] (some centres undefined) | Yes
COCCCNC(=O)[C@@]1(Cc2ccccc2I)c2ccccc2C(=O)N(Cc2ccccc2Cl)[C@H]1c1ccc(CO)cc1 | No
COC(=O)[C@@]1(Cc2ccc(F)cc2)[C@H]2c3cc(C(=O)N4CCCC4)n(Cc4ccccc4)c3C[C@H]2CN1C(=O)c1ccccc1 | Yes
Cc1ccc(S[C@]2(C(=O)NCC(C)C)CC(=O)N(C3CCCCC3)[C@@H]2c2ccc(CO)cc2I)cc1 | No
NC(=O)[C@@H]1[C@H]2C(=O)O[C@H](c3ccccc3)[C@H](c3ccccc3)N2[C@H](c2ccccc2OCCO)[C@@]12C(=O)Nc1ccc(C#CCCO)cc12 | No
CC(C)(C)OC(=O)CC[C@]1(C(=O)O)COC(c2ccc(OCCCO)cc2)=N1 | No
